Value source: patent US20230265116A1

Target: EGFR L858R/T790M/C797S (BaF3-LTC cells) (Homo sapiens, UniProt P00533, C797S/L858R/T790M)
Construct: expressed in transfected cells; host or cells: BaF3
Sequence (P00533 25-1210 T790M/C797S/L858R): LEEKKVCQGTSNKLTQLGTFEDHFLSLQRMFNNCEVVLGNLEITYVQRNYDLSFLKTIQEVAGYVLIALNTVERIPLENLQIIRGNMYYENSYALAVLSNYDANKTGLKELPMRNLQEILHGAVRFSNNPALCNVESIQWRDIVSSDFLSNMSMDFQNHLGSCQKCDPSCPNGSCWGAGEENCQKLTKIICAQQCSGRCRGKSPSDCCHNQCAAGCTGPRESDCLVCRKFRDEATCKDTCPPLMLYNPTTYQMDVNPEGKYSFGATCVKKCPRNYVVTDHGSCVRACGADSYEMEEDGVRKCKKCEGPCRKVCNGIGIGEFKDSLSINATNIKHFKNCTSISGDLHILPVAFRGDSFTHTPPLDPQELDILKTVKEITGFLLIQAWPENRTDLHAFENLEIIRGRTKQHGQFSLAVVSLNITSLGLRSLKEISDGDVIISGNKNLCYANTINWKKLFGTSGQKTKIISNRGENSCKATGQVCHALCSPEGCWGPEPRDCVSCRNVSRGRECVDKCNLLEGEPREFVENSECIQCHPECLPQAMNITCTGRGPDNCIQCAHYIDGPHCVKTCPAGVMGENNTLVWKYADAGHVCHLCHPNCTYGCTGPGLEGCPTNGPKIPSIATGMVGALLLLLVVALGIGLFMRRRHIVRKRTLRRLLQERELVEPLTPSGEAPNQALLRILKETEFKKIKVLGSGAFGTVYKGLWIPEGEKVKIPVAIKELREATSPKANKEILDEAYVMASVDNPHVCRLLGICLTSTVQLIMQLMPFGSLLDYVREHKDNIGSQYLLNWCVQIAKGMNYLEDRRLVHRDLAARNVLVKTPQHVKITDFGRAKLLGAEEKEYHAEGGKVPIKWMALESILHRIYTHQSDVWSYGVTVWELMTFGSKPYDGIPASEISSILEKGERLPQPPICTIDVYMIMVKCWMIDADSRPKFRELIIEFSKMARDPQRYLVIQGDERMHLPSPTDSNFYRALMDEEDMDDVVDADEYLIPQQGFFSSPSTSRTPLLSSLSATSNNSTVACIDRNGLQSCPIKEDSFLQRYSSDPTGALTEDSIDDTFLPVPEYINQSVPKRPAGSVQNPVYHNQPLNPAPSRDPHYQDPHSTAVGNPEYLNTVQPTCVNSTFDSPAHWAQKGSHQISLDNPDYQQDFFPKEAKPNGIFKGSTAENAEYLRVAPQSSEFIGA
Assay: EGFR degradation HTRF assay, BaF3-LTC cells
Assay type: cell-based
Conditions: BaF3-LTC cells; EGFR degradation, IC50 (DC50) from curve fit; read-out: DC50(nM) BaF3-LTC
measurement-name: DC50 (nM)

Completed entries (count: 5):
CCOc1cc(N2CCC(N3CCN(CCOCCc4cccc5c4oc(=O)n5C4CCC(=O)NC4=O)CC3)CC2)c(CC)cc1Nc1ncc(Br)c(Nc2ccc3nc(CC)ccc3c2P(C)(C)=O)n1 (stereo not shown) | 11.2
CCOc1cc(N2CCC(N3CCN(CCc4cc(F)c([C@H]5CCC(=O)NC5=O)c(F)c4)CC3)CC2)c(CC)cc1Nc1ncc(Br)c(Nc2ccc3nc(CC)ccc3c2P(C)(C)=O)n1 | 26.6
CCc1cc(Nc2ncc(Br)c(Nc3ccc4nc(C)ccc4c3P(C)(C)=O)n2)c(OC)cc1N1CCC(N2CCN(CCc3cc(F)c(C4CCC(=O)NC4=O)c(F)c3)[C@@H](C)C2)CC1 (stereo partly shown) | 13.8
CCc1ccc2c(P(C)(C)=O)c(Nc3nc(Nc4cc(CC)c(N5CCC(N6CCN(C(=O)C78CCC(Nc9cc(F)c([C@H]%10CCC(=O)NC%10=O)c(F)c9)(CC7)C8)CC6)CC5)cc4OC)ncc3Br)ccc2n1 | 3.98
CCOc1cc(N2CCC(N3CCN(C[C@@H]4CCN(c5cc(F)cc6c5oc(=O)n6C5CCC(=O)NC5=O)C4)CC3)CC2)c(CC)cc1Nc1ncc(Br)c(Nc2ccc3nc(CC)ccc3c2P(C)(C)=O)n1 (stereo partly shown) | 26.5

I: CCc1ccc2c(P(C)(C)=O)c(Nc3nc(Nc4cc(CC)c(N5CCC(N6CCN(C[C@H]7C[C@H](N(C)c8cc(F)c(C9CCC(=O)NC9=O)c(F)c8)C7)CC6)CC5)cc4OC)ncc3Br)ccc2n1 (stereo partly shown)
II: CCc1cc(Nc2ncc(Br)c(Nc3ccc4nc(C)ccc4c3P(C)(C)=O)n2)c(OC)cc1N1CCC(N2CCN(CCOc3cccc4c3n(C)c(=O)n4C3CCC(=O)NC3=O)CC2)CC1 (stereo not shown)
III: CCOc1cc(N2CCC(N3CCN(CCc4c(F)ccc5c4C(C)(C)C(=O)N5C4CCC(=O)NC4=O)CC3)CC2)c(CC)cc1Nc1ncc(Br)c(Nc2ccc3nc(CC)ccc3c2P(C)(C)=O)n1 (stereo not shown)
IV: CCc1cc(Nc2ncc(Br)c(Nc3ccc4nc(C)ccc4c3P(C)(C)=O)n2)c(OC)cc1N1CCC(N2CCN(C(=O)[C@@H]3CCN(c4cc(F)c([C@H]5CCC(=O)NC5=O)c(F)c4)C3)[C@H](CO)C2)CC1
Write the entries in order, lowest recorded DC50 first. Reply with the labels, ordered as the question asks. II, IV, III, I
(II: 1.11 nM, IV: 4.3 nM, III: 13.2 nM, I: 24.6 nM)

====

Target: EGFR L858R/T790M/C797S (BaF3-LTC cells) (Homo sapiens, UniProt P00533, C797S/L858R/T790M)
Construct: expressed in transfected cells; host or cells: BaF3
Assay: EGFR degradation HTRF assay, BaF3-LTC cells
Assay type: cell-based
Details: BaF3-LTC cells; EGFR degradation, IC50 (DC50) from curve fit; read-out: DC50(nM) BaF3-LTC
measurement-name: DC50 (nM)

Completed entries (count: 2):
CCc1cc(Nc2ncc(Br)c(Nc3ccc4nc(C)sc4c3P(C)(C)=O)n2)c(OC)cc1N1CCC(N2CCN(CCc3cc(F)c([C@H]4CCC(=O)NC4=O)c(F)c3)CC2)CC1 | 8.68
CCOc1cc(N2CCC(N3CCN(CCc4cccc5c4oc(=O)n5C4CCC(=O)NC4=O)CC3)CC2)c(CC)cc1Nc1ncc(Br)c(Nc2ccc3c(=O)n(CC)ncc3c2P(C)(C)=O)n1 (centres unmarked) [Example 644] | 5.12

1: CCc1ccc2c(P(C)(C)=O)c(Nc3nc(Nc4cc(CC)c(N5CCC(N6CCN(CCc7ccc8c(oc(=O)n8C8CCC(=O)NC8=O)c7F)CC6)CC5)cc4OC)ncc3Br)ccc2n1 (centres unmarked)
2: CCOc1cc(N2CCC(N3CCN(CCc4c(C)ccc5c4n(C)c(=O)n5C4CCC(=O)NC4=O)CC3)CC2)c(CC)cc1Nc1ncc(Br)c(Nc2ccc3nc(CC)ccc3c2P(C)(C)=O)n1 (centres unmarked)
3: CCc1cc(Nc2ncc(Br)c(Nc3ccc4nc(C5CC5)ccc4c3P(C)(C)=O)n2)c(OC)cc1N1CCC(N2CCN(CCc3cc(F)c([C@H]4CCC(=O)NC4=O)c(F)c3)CC2)CC1
Rank the 3 compounds: largest DC50 first, smallest last. Reply with the labels, ordered as the question asks. 2, 3, 1
(2: 132 nM, 3: 11.2 nM, 1: 2.09 nM)

====

Target: EGFR (HCC827 cells) (Homo sapiens, UniProt P00533, DEL746-750)
Construct: endogenous in cells; host or cells: HCC827
Sequence (P00533 with tags, fused parts or gaps DEL746-750): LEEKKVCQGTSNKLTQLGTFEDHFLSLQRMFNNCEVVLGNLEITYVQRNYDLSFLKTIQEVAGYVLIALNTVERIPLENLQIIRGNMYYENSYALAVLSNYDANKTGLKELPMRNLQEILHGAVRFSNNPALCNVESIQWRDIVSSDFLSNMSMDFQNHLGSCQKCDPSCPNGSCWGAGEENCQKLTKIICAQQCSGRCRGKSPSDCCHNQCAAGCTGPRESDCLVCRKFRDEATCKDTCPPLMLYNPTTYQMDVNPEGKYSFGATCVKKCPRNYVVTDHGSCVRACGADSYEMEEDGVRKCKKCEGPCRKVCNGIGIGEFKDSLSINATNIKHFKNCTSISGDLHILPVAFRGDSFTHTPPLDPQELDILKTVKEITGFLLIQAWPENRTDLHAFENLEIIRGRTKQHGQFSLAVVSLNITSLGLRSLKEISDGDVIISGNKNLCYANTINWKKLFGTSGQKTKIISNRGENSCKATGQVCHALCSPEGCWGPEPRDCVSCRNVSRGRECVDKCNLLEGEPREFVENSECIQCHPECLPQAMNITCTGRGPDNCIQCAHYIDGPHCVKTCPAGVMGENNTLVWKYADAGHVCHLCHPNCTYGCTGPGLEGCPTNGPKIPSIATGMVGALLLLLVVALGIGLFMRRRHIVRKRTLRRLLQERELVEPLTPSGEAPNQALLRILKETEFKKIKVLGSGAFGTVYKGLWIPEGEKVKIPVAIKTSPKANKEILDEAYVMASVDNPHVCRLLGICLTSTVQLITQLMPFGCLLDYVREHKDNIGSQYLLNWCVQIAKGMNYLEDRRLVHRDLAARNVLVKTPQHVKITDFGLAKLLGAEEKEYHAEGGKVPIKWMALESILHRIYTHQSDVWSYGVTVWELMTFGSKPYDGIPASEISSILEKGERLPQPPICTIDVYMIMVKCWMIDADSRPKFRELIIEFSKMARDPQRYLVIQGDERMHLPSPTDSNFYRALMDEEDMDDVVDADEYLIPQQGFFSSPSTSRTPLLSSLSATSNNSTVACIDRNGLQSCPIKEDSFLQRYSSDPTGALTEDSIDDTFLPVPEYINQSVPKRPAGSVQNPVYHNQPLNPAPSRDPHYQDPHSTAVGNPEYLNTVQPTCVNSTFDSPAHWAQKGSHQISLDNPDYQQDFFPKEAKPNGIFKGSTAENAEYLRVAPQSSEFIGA
Test: EGFR degradation HTRF assay, HCC827 cells
Type: cell-based
Details: HCC827, 16h treatment, maximum percentage of degradation
Description: BaF3 WT(wild type), BaF3-LTC(L858R/T790M/C797S) and BaF3-DTC(Del19/T790M/C797S) cells are treated with compounds diluted in 0.2% DMSO cell culture medium and incubate for 16h, 37° C., 5% CO2, H1975-#36, H1975-#28, H1975-#23 and HCC827 cells are treated with compounds diluted in 0.2% DMSO cell culture medium on day 2, incubate for 16h, 37° C., 5% CO2.the final concentriation of compounds in all assay is start with 10 uM, 5-fold dilution, total 8 doses were included. […]
measurement-name: Dmax (%)

COc1cc(N2CCC(N(C)CCc3ccc(C4CCC(=O)NC4=O)cc3)CC2)c(C)cc1Nc1ncc(Br)c(Nc2ccc3nccnc3c2P(C)(C)=O)n1 (centres unmarked) | 72.1
COc1cc(N2CCN(CC3CCN(c4ccc(N5CCC(=O)NC5=O)c(C)c4)CC3)CC2)c(C)cc1Nc1ncc(Br)c(Nc2ccc3nccnc3c2P(C)(C)=O)n1 | 78.5
COc1cc(N2CCN(CCc3ccc(OC4CCC(=O)NC4=O)cc3)CC2)c(C)cc1Nc1ncc(Br)c(Nc2ccc3nccnc3c2P(C)(C)=O)n1 (centres unmarked) | 72.4
CCc1cc(Nc2ncc(Br)c(Nc3ccc4nccnc4c3P(C)(C)=O)n2)c(OC)cc1N1CCC(N2CCN(CCCOc3ccc(C4CCC(=O)NC4=O)cc3)CC2)CC1 (centres unmarked) | 77.5
CCc1cc(Nc2ncc(Br)c(Nc3ccc4nccnc4c3P(C)(C)=O)n2)c(OC)cc1N1CCC(N2CCN(C(=O)CN3CCN(c4ccc5c(c4)C(=O)N(C4CCC(=O)NC4=O)C5)CC3)CC2)CC1 (centres unmarked) | 64.3

====

Molecular target: EGFR L858R/T790M/C797S (BaF3-LTC cells) (Homo sapiens, UniProt P00533, C797S/L858R/T790M)
Construct: expressed in transfected cells; host or cells: BaF3
Test: EGFR degradation HTRF assay, BaF3-LTC cells
Assay type: cell-based
Conditions: BaF3-LTC cells; EGFR degradation, IC50 (DC50) from curve fit; read-out: DC50(nM) BaF3-LTC
measurement-name: DC50 (nM)

A: CCOc1cc(N2CCC(N3CCN(CCc4cc5oc(=O)n(C6CCC(=O)NC6=O)c5cc4C)CC3)CC2)c(CC)cc1Nc1ncc(Br)c(Nc2ccc3c(=O)n(CC)ncc3c2P(C)(C)=O)n1 (stereo not shown)
B: COc1cc(N2CCC3(CCN(CCCCCOc4cccc5c4CN(C4CCC(=O)NC4=O)C5=O)CC3)CC2)c(C)cc1Nc1ncc(Br)c(Nc2ccc3nccnc3c2P(C)(C)=O)n1 (stereo not shown)
C: CCOc1cc(N2CCC(N3CCN(CCc4cc(F)c([C@H]5CCC(=O)NC5=O)c(F)c4)CC3)CC2)c(CC)cc1Nc1ncc(Cl)c(Nc2cc(F)c3nc(CC)ccc3c2P(C)(C)=O)n1
Method: rank(items above, key=DC50, ascending=True) Reply with the labels, ordered as the question asks. A, B, C

A: CCOc1cc(N2CCC(N3CCN(C(=O)[C@@H]4CCN(c5cc(F)c([C@H]6CCC(=O)NC6=O)c(F)c5)C4)CC3)CC2)c(CC)cc1Nc1ncc(Br)c(Nc2ccc3c(=O)n(C)ncc3c2P(C)(C)=O)n1
B: COc1cc(N2CCC(N3CCN(C(=O)[C@@H]4CCN(c5cc(F)c([C@H]6CCC(=O)NC6=O)c(F)c5)C4)CC3)CC2)c(C)cc1Nc1ncc(Br)c(Nc2ccc3c(=O)n(C)ncc3c2P(C)(C)=O)n1
C: CCc1cc(Nc2ncc(Br)c(Nc3ccc4nc(C)ccc4c3P(C)(C)=O)n2)c(OC)cc1N1CCC(N2CCN(C(=O)Cc3cccc4c3n(C)c(=O)n4C3CCC(=O)NC3=O)CC2)CC1 (stereo not shown)
Rank the 3 compounds: largest DC50 first, smallest last. Reply with the labels, ordered as the question asks. C, A, B
(C: 9.65 nM, A: 5.05 nM, B: 1.77 nM)

a: CCOc1cc(N2CCC(N3CCN(C(=O)CN4CCN(c5cc(F)c([C@H]6CCC(=O)NC6=O)c(F)c5)CC4)CC3)CC2)c(CC)cc1Nc1ncc(Br)c(Nc2ccc3c(=O)n(CC)ncc3c2P(C)(C)=O)n1
b: CCOc1cc(N2CCC(N3CCN(CCc4cc(F)c([C@H]5CCC(=O)NC5=O)c(F)c4)CC3)CC2)c(CC)cc1Nc1ncc(Br)c(Nc2ccc3c(=O)n(CC)ncc3c2P(C)(C)=O)n1
Recorded DC50 values differ for a and b ; which one is higher? // return label of chosen record b
(b: 22.6 nM, a: 4.06 nM)
